# System: T1, ATX1 AXH (residues A567-K689 of human ATX1) (human)
# T1 chain: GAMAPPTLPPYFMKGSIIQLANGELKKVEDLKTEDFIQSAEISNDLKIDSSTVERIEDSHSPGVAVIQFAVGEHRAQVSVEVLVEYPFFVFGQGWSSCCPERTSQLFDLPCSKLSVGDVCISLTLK
# Method: ITC
pKd: −log10 of the molar value.
Quantity Measured: pKd

Example entries begin here.
> print(dat)
                                     binder  quantitative.readout
1  VFPWHSLVPALAPSQ [L-CICp with F43 mutated to alanine]                  7.22
2  VFPWASLVPFLAPSQ [L-CICp with H38 mutated to alanine]                  7.30
3  VFPWHSLVAFLAPSQ [L-CICp with P42 mutated to alanine]                  7.40
4  VFPAHSLVPFLAPSQ [L-CICp with W37 mutated to alanine]                  5.59
5  VFPWHALVPFLAPSQ [L-CICp with S39 mutated to alanine]                  8.00

a. VFPWHSLVPFAAPSQ [L-CICp with L44 mutated to alanine]
b. VFPWHSLVPFLAASQ [L-CICp with P46 mutated to alanine]
QUERY: Between a and b , which one has the lower reported pKd value? Lab log: write the label of the selected item as the result.
RESULT: a

P. VFPWHSAVPFLAPSQ [L-CICp with L40 mutated to alanine]
Q. VFAWHSLVPFLAPSQ [L-CICp with P36 mutated to alanine]
QUERY: Of P and Q , which one carries the higher reported pKd? Lab log: write the label of the selected item as the result.
RESULT: Q
(Q: 7.40, P: 6.30)

All figures here come from paper PMC3796545.
